TARGET DESC: UniProt P15144
Sequence (P15144 whole entry, species assumed): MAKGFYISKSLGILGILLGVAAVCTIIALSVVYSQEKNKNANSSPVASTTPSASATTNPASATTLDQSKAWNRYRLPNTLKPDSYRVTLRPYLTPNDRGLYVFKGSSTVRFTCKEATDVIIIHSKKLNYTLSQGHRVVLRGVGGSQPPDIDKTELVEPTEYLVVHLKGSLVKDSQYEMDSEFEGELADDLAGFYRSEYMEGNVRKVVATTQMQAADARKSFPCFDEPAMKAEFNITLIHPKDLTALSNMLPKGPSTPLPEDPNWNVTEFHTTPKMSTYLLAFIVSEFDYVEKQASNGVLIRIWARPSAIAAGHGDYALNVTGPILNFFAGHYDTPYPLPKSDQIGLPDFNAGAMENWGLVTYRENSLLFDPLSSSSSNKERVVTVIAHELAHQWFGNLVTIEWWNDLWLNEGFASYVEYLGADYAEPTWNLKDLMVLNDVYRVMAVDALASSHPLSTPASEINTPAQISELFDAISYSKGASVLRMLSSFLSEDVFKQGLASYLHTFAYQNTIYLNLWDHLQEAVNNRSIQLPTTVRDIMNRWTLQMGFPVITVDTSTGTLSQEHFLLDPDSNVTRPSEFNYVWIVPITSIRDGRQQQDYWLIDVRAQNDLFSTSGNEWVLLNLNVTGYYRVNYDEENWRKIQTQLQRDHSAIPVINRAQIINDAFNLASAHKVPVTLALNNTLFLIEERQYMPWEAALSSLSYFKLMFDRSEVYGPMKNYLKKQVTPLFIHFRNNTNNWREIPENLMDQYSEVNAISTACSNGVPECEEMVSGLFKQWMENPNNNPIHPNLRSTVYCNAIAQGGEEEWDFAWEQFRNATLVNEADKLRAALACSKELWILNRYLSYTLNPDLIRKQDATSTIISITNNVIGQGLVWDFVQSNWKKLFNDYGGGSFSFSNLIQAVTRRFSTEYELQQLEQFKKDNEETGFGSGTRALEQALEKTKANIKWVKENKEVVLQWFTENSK
ASSAY METHOD TEXT: Inhibition of alanyl aminopeptidase enzymatic activity, fluorogenic substrate (Ala)2-rhodamine 110
Type: biochemical
EXPERIMENTAL SETUP: Table 3, unstarred values; read-out: IC50APN
Method: The inhibition characteristics measured are referred to as IC-50 values or ID50 values (the latter marked with “*”) for said enzyme. The enzymatic activity was determined by means of the fluorogenic substrate/product (Ala)2-rhodamine 110.
EXPERIMENTAL READOUT: pIC50
# pIC50 = -log10(concentration in molar units)

query: Request the reported pIC50 associated with `CCOC(=O)c1c(N)ncn1-c1ccccc1`
result: 5.27

query: Follow-up entry: `COc1ccc(-c2nc(C)sc2CC(=O)O)cc1`
result: 4.68

query: Follow-up entry: `CCc1ccc(OCC(=O)N/N=C\c2ccco2)c([N+](=O)[O-])c1`
result: 4.60

query: Follow-up entry: `O=C(N/N=C/c1ccco1)c1ccc(F)cc1`
result: 4.16

query: Follow-up entry: `O=C(N/N=C/c1ccco1)c1ccn[nH]1`
result: 4.39

query: Follow-up entry: `CCOC(=O)N1CCc2c(sc(NC(=O)c3ccc(F)cc3)c2C(=O)Nc2ccc(Br)cc2)C1`
result: 5.14
